Catalogue of compounds with associated residual activity
Assay System: GRK4 (human) (UniProt P32298)
Sequence (P32298 whole entry, looked up): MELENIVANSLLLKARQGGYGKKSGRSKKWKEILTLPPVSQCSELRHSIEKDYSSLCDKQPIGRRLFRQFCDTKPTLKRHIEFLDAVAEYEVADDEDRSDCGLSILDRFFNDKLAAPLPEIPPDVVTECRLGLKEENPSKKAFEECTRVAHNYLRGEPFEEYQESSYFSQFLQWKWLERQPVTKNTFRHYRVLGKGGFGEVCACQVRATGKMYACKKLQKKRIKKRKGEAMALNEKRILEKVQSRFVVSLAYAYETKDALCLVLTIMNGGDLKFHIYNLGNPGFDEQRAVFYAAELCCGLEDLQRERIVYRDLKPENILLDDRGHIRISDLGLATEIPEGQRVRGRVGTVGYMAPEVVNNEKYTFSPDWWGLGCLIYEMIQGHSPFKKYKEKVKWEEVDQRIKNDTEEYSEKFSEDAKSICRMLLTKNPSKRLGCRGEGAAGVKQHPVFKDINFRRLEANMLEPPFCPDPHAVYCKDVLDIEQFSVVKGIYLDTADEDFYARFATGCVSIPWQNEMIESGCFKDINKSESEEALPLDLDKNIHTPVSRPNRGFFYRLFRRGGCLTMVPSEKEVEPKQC
Protocol Details: radiometric filter-binding kinase assay, Kinase HotSpot
Condition Details: compound 0.5 µM; ATP 10 µM
Quick note: give the figure in %, leave out the unit.

Solved cases below.
> print(dat)
                                   compound                   assay.system     assay.endpoint  test.result
1      COc1ccc(-c2cnc3c(-c4ccsc4)cnn3c2)cc1  GRK4 (human) (UniProt P32298)  residual activity           97
2  Cc1ccc(NC(=O)c2ccc(CN3CCN(C)CC3)cc2)cc1Nc1nc(-c2cccnc2)cs1  GRK4 (human) (UniProt P32298)  residual activity          108
3   CC(C)n1cnc2c(Nc3cccc(Cl)c3)nc(NCCO)nc21  GRK4 (human) (UniProt P32298)  residual activity         93.5
4           CCN1/C(=C/C(C)=O)Sc2ccc(OC)cc21  GRK4 (human) (UniProt P32298)  residual activity         96.2
5  CS(=O)c1ccc(-c2nc(-c3ccc(F)cc3)c(-c3ccncc3)[nH]2)cc1 (stereo not given)  GRK4 (human) (UniProt P32298)  residual activity         95.5
6  Nc1nc(Nc2ccc(S(N)(=O)=O)cc2)nn1C(=O)c1c(F)cccc1F  GRK4 (human) (UniProt P32298)  residual activity         94.7
7   O=C1Nc2ccccc2/C1=C\c1c(Cl)[nH]c2ccccc12  GRK4 (human) (UniProt P32298)  residual activity          102
8  CSc1nc(-c2ccc(F)cc2)c(-c2ccnc(NC(C)c3ccccc3)c2)[nH]1 (stereo not given)  GRK4 (human) (UniProt P32298)  residual activity         90.6
9    Clc1ccc(Nc2nnc(Cc3ccncc3)c3ccccc23)cc1  GRK4 (human) (UniProt P32298)  residual activity         91.3

In: Give the reported residual activity for O=C(NC(NC(=S)Nc1ccc(F)c([N+](=O)[O-])c1)C(Cl)(Cl)Cl)C(c1ccccc1)c1ccccc1 (stereo not given) (system: GRK4 (human) (UniProt P32298)).
Out: 101

Reference source for all entries: the kinase profiling compilation of Christmann-Franck et al. (2016)
